Cited source: patent US7678918B2

System: TNF
experiment_notes: Cytokine Induction in Human Cells: tumor necrosis factor (TNF) secreted by PBMCs, ELISA; also: call rule not given here
Format: cell-based
experimental_context: Dose Concentration 1.0 μM, 18 to 24 hours
measured_endpoint: TNF induction

Some solved entries appear below for comparison.
CCCCc1nc2c(N)nc3cccnc3c2n1CCCCNC(=O)CCCCC(=O)OC ... +
C/C=C/C(=O)NCCn1c(CCCC)nc2c(N)nc3cccnc3c21 ... +
CCCCc1nc2c(N)nc3cccnc3c2n1CCNC(=O)OC(C)(C)C ... −
CCCCc1nc2c(N)nc3cccnc3c2n1CCNC(=O)CCC(=O)c1cccs1 ... +

# return TNF induction for each item in the list
1. CCCCc1nc2c(N)nc3cccnc3c2n1CCNC(=O)C1C2CC3C(C2=O)C31 (stereo not drawn)
2. CCCCc1nc2c(N)nc3cccnc3c2n1CCNC(=O)CCN1C(=O)c2ccccc2C1=O
3. CCCCc1nc2c(N)nc3cccnc3c2n1CCCCNC(=O)c1ccc(F)cc1

+
−
+

----------
measured_endpoint: melting point

Below: 5 molecules and their reported melting point.
CCCCc1nc2cnc3cccnc3c2n1CCCCNC(=O)OC(C)(C)C ... 96 to 98 °C
CCCCc1nc2c(N)nc3cccnc3c2n1CC(C)(C)O ... 177 to 179 °C
CCCCc1nc2c(N)nc3cccnc3c2n1CCCCNC(=O)c1ccc(C(OCCN(C)C)c2ccccc2)cc1 (stereo not drawn) ... 105 to 108 °C
O=[N+]([O-])c1cnc2cccnc2c1NCCOc1ccccc1 ... 107 to 108 °C
O.Oc1cc2nnnn2c2cnccc12 (hydrate or solvate) ... 247 to 248 °C (dec.)

Attention now turns to another entry.
Any idea what melting point was measured for CCCCc1nc2c(N)nc3cccnc3c2n1CCNC(=O)CC(C)CCC=C(C)C (stereo not drawn) ?
163 to 164 °C

----------
measured_endpoint: melting point

Consider the following illustrative entries.
Cc1nnnn1-c1cnccc1C(=O)O [Example 14] ... 214 to 215 °C (dec.)
CC(C)(C)OC(=O)NCCNc1c([N+](=O)[O-])cnc2cccnc12 [Example 86] ... 149 to 151 °C
CCCCc1nc2c(N)nc3cccnc3c2n1CCNC(=O)Cc1cccc(O)c1 [Example 98] ... 208 to 210 °C
CCCCc1nc2c(N)nc3cccnc3c2n1CCNC(=O)CCCCCC1NC(=O)NC1C (stereo not drawn) [Example 115] ... 184 to 186 °C
CCCCOCCCn1c(CCCC)nc2cnc3cccnc3c21 [Example 78] ... 56.5 to 57.5 °C

// each compound listed below needs its melting point
1. CCCCc1nc2c(N)nc3cnccc3c2n1CC(C)C [Example 27]
2. CCCCc1nc2c(N)nc3cccnc3c2n1CCNC(=O)c1cccc(O)n1 [Example 99]
3. CCCCc1nc2c(N)nc3c(c2n1CC(C)C)CCCN3 (hydrate or solvate) [Example 13]
4. CCCCc1nc2c(N)nc3cccnc3c2n1CCCCNC(=O)CSc1ncccn1 [Example 109]

1. 213 to 214 °C
2. 258 to 260 °C
3. 81 to 84 °C
4. 156 to 160 °C (dec.)

----------
measured_endpoint: melting point

CC(C)Cn1cnc2c(N)nc3ncccc3c21 (hydrate or solvate) [Example 9] ... 325 to 330 °C (dec.)

I need melting point for every entry listed below, if you could help.
1. Clc1cc2nnnn2c2ncccc12 [Example 4]
2. CC(C)CNc1c(N)c2nnnn2c2cnccc12 [Example 20]
3. CCOCC(=O)Nc1cnc2cccnc2c1NCc1ccccc1.Cl
4. Cc1nc2c(N)nc3c(c2n1CC(C)C)CCNC3 [Example 26]

["229 to 230 °C (dec.)", "203 to 204.5 °C", "205 to 212 °C", "226 to 230 °C"]

Items follow; give melting point for each.
1. CC(C)(C)OC(=O)NCCCCNc1c([N+](=O)[O-])cnc2cccnc12 [Example 41]
2. CC(C)Cn1nnn2c3ncccc3c3ncnc-3c12 [Example 8]
3. O=[N+]([O-])c1cnc2cccnc2c1NCc1ccccc1 [Example 66]
4. CCOCc1nc2cnc3cccnc3c2n1Cc1ccccc1 [Example 68]

1. 137 to 138 °C
2. 248 to 250 °C (dec.)
3. 127 to 129 °C
4. 118 to 119 °C

// lookup melting point for CC(C)CNc1c([N+](=O)[O-])cnc2cccnc12 [Example 29]
97 to 99 °C
